The molecules listed here are annotated with their LD20.
# System: P388
# measurement.description: The compound tested for the lethal dose in murine lymphocytic leukemia P388.
# Type: ADME
# experimental.context: mouse
Report only the number, with the unit mg/kg understood.

A selection of reference data follows.
substance.smiles	result.unit	LD20
CC(CO)(CO)NCc1cc2c3c(cccc3c1)-c1ccccc1-2.Cl	mg/kg	160
CC(CO)(CO)NCc1cccc2c1-c1cccc3cccc-2c13.Cl	mg/kg	123
CC(CO)(CO)NCc1ccc2c3c(cccc13)-c1ccccc1-2.Cl	mg/kg	110

Continue with the next molecule.
LD20 reading for CC(CO)(CO)NCc1ccc2cccc3c2c1-c1ccccc1-3.Cl : 140
